Below: a set of entries, each annotated with reported pEC50.
Target: human CMKLR1 (Homo sapiens, UniProt Q99788)
Construct: host or cells: HEK293A (Invitrogen), stably expressing human Gα15
Sequence (Q99788 whole entry): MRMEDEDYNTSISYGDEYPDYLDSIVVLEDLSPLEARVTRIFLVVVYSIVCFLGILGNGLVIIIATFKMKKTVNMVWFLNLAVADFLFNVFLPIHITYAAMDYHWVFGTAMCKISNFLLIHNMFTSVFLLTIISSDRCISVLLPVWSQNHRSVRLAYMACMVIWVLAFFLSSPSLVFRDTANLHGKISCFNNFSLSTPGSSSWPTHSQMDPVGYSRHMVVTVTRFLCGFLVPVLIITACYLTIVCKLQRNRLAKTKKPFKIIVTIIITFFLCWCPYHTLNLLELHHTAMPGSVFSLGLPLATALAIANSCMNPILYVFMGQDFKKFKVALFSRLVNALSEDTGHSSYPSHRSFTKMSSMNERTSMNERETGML
Experiment: Ca2+ mobilization (CellLux imaging) agonist assay in HEK293A cells expressing CMKLR1 and Gα15
Assay type: cell-based
Conditions: Ca2+ mobilization, CMKLR1; decimal comma; NR where no EC50 is given; read-out: EC50
Square brackets hold non-standard residues; d marks the D form. Peptide text beside a SMILES is read from it.
Interpret pEC50 as the negative base-10 log of the concentration measured in mol/L.

| Compound | Target Under Test | pEC50 |
| --- | --- | --- |
| CC(C)C[C@H](NC(=O)[C@H](C)NC(=O)[C@H](Cc1ccc(O)cc1)NC(=O)[C@@H](CCC(N)=O)NC(=O)CNC(=O)[C@@H]1CCCN1C(=O)[C@H](CC(C)C)NC(=O)[C@@H](N)Cc1ccc(O)cc1)C(=O)N[C@H](Cc1ccccc1)C(=O)O [compound 135] (H-YLPG[dQ]YAL[dF]-OH; N-terminus assumed) | human CMKLR1 (Homo sapiens, UniProt Q99788) | 7.14 |

Record CC(C)C[C@H](NC(=O)[C@@H](N)Cc1ccc(O)cc1)C(=O)N1CCC[C@H]1C(=O)N[C@H](Cc1c[nH]c2ccccc12)C(=O)N[C@@H](CCC(N)=O)C(=O)N[C@@H](Cc1ccc(O)cc1)C(=O)N[C@@H](C)C(=O)N[C@@H](Cc1ccccc1)C(=O)N[C@H](Cc1ccccc1)C(=O)O [compound 127] (H-YLP[dW]QYAF[dF]-OH; N-terminus assumed) . Reported pEC50: 7.45

# compound CC(C)C[C@H](NC(=O)[C@@H](N)Cc1ccccc1)C(=O)N1CCC[C@H]1C(=O)NCC(=O)N[C@@H](CCC(N)=O)C(=O)N[C@@H](Cc1ccccc1)C(=O)N[C@H](Cc1c[nH]c2ccccc12)C(=O)N[C@@H](Cc1ccccc1)C(=O)N[C@H](CO)C(=O)O [compound 89] (H-FLPGQF[dW]F[dS]-OH; N-terminus assumed) ; its pEC50 = 7.31

Entry NC(=O)CC[C@H](NC(=O)CNC(=O)[C@@H]1CCCN1C(=O)[C@@H](Cc1ccccc1)NC(=O)[C@H](N)Cc1ccccc1)C(=O)N[C@@H](Cc1ccccc1)C(=O)NCC(=O)N[C@H](Cc1ccc(O)cc1)C(=O)N[C@H](CC(N)=O)C(N)=O [compound 15] (H-[dF][dF]PGQFG[dY][dN]-NH2; N-terminus assumed) , pEC50 reported as 5.46
